Origin of values: patent US20250250357A1

- Target Under Test: T1, human MSLN-R1-his protein (human, UniProt Q13421 296-390)
- T1 construct: Region 1 of human MSLN, His-tagged; also called human MSLN-R1 protein; hMSLN-R1-his; not shown: His tag
- T1 chain: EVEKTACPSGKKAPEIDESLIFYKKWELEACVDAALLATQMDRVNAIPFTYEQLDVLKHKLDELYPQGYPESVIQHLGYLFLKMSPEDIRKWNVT
- Test Protocol: ELISA, coated MSLN-R1;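 note: serially diluted chimeric antibodies bound to the coated, BSA-blocked plate for 2 h at 37 °C, with TMB colour read after acid stop and a negative control antibody alongside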
Experimental Readout: OD450 at 0.1 nM (OD450)
Give bare numbers, in OD450.

# count of solved cases: 2
>  <Binder>
S009-F2.13.3 (antibody, human IgG1, kappa, V domains shown, Human-murine chimeric antibody, human IgG1/kappa constant regions) VH: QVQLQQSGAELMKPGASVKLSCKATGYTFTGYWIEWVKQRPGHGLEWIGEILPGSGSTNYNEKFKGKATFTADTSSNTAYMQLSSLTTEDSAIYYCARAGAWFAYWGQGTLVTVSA VL: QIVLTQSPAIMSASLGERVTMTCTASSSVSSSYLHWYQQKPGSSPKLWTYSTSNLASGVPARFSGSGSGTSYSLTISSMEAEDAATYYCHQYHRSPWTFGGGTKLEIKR

>  <Reported Result>
0.05

$$$$
>  <Binder>
S009-F2.21.4 (antibody, human IgG1, kappa, V domains shown, Human-murine chimeric antibody, human IgG1/kappa constant regions) VH: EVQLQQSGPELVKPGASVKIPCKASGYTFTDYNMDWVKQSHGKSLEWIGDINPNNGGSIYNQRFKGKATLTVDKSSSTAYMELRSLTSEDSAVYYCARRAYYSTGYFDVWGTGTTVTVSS VL: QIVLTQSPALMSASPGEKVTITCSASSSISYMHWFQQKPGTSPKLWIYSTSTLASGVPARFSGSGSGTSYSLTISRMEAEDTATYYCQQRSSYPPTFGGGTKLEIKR

>  <Reported Result>
0.05

$$$$

# batch: return OD450 at 0.1 nM for each of the 3 binders below
1. S009-F2.16.10 (antibody, human IgG1, kappa, V domains shown, Human-murine chimeric antibody, human IgG1/kappa constant regions) VH: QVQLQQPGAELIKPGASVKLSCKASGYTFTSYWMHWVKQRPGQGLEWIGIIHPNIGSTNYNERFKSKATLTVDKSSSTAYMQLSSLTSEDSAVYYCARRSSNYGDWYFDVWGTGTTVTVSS VL: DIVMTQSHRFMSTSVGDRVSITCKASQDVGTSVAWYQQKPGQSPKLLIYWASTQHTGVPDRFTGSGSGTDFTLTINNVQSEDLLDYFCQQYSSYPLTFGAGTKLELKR
2. S009-F2.23.12 (antibody, human IgG1, kappa, V domains shown, Human-murine chimeric antibody, human IgG1/kappa constant regions) VH: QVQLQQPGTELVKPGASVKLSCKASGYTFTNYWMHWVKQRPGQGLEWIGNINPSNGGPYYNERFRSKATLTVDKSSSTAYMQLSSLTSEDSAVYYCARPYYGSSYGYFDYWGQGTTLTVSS VL: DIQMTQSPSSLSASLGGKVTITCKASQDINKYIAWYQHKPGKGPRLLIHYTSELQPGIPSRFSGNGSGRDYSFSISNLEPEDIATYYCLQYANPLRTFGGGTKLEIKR
3. S009-F2.39.3 (antibody, human IgG1, kappa, V domains shown, Human-murine chimeric antibody, human IgG1/kappa constant regions) VH: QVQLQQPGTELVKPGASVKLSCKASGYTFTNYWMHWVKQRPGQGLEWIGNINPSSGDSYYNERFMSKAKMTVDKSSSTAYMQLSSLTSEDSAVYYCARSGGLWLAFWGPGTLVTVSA VL: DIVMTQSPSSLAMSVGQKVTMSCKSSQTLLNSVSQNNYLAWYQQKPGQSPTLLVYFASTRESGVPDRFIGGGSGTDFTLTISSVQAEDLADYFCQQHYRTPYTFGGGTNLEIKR

1. 0.44
2. 0.05
3. 0.05
